Please provide measured Ki for the entries that follow.
# tested on: 5-hydroxytryptamine receptor 1A (Homo sapiens, UniProt P08908)
# Sequence (P08908 whole entry): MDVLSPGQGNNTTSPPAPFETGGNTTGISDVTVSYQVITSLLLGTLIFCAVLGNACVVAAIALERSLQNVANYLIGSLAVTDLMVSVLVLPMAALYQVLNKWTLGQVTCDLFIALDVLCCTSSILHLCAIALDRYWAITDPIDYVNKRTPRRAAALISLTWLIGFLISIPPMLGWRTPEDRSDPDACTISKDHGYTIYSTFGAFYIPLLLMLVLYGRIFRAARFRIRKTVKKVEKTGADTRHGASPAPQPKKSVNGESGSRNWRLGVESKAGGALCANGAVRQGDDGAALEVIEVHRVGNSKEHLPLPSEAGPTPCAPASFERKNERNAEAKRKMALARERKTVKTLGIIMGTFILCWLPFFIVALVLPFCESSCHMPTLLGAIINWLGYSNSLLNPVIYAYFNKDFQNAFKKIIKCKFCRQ
Field format: number, assumed pM, no unit text.

What does the data say about its Ki? Entry: COC(=O)c1cc2c(N3CCN(CCCCN4C(=O)c5ccccc5S4(=O)=O)CC3)cccc2[nH]1 [CAS_141533-35-9]
700

What value of Ki has been recorded for this entry: CC(C)(C)NCC(O)COc1cccc2c1SCCC2 (single isomer, unassigned; (-)) [TERTATOLOL(-)]
10000

What value of Ki has been reported for the following molecule? CCCN(CCC)CCc1c[nH]c2ccc(C(N)=O)cc12 [NN-DIPROP-5-CT]
200

Could you share which Ki value was measured for FC(F)(F)c1cccc(C2=CCN(CCc3ccc4ccccc4c3)CC2)c1 [CAS_90494-79-4] ?
2000

I'd like to know its Ki. The molecule in question is COc1ccccc1N1CCN(CCCNc2c(C)c(=O)n(C)c(=O)n2C)CC1 [Urapidil-5-methyl]
350

Returns the measured Ki for the input molecule. Input: `COc1ccccc1N1CCN(CCN(C(=O)c2ccc(I)cc2)c2ccccn2)CC1`
320

So what does the record say about Ki for COc1ccccc1N1CCN(C[C@@H](C(=O)NC(C)(C)C)c2ccccc2)CC1 [WAY 100135] ?
20000

# query: Ki of entry COc1c(O)c(O)cc2c1CC(N)CC2 (stereo not drawn) [5-OME-3-ADTN]
1000
